# assayTarget: PARP-1 (Homo sapiens)
# Sequence (P09874 whole entry): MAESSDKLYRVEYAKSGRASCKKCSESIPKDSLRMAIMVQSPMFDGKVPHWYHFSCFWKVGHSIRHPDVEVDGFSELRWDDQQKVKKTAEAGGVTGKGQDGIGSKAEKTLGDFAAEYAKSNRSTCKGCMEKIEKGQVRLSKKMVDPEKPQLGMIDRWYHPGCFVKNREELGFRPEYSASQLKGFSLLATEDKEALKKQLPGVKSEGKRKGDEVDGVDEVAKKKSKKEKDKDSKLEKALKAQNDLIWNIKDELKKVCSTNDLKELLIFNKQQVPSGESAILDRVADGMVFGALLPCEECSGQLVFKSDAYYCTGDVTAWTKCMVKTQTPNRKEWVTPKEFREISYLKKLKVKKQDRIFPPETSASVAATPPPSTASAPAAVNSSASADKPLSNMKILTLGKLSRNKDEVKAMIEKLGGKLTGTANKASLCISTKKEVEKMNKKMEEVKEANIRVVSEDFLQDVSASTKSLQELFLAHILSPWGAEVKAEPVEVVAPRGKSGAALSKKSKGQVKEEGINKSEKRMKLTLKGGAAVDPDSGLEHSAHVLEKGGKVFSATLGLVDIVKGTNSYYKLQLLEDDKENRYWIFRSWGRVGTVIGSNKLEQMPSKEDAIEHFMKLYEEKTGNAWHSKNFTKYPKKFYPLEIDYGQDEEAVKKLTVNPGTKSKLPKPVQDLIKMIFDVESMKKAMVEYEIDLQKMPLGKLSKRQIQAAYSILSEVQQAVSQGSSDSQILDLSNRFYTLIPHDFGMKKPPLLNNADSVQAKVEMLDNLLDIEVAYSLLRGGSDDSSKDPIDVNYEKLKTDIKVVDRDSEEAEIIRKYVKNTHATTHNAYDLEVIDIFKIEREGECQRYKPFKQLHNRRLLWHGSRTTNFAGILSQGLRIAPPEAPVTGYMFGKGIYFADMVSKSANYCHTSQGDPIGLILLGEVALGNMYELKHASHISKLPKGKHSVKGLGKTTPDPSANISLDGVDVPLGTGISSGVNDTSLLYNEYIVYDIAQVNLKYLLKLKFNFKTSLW
# methodNotes: in vitro PARP-1 auto-PARylation assay (SRPK2 plate assay)
# Assay type: biochemical
# Set-up: The full-length WT PARP-1 protein used in these assays; made in house
# conditionDetails: read-out: IC50 against PARP-1 catalytic activity (auto-PARylation)
measurementLabel: IC50 (nM)

(P) O=C(c1cc(Cc2n[nH]c(=O)c3ccccc23)ccc1F)N1CCn2cnnc2C1 [Pip1]
(Q) CC(C)c1nnc2n1CCN(C(=O)c1cc(Cc3n[nH]c(=O)c4ccccc34)ccc1F)C2 [Pip4]
Task: Among P and Q , which shows a numerically higher IC50 result? Identify your selection by its label.
Result: Q
(Q: 17.5 nM, P: 3.9 nM)
